# Test system: Klebsiella pneumoniae 369
# test-summary: In vitro MIC, Agar Well Diffusion Method
# Assay type: cell-based
# reported-conditions: Agar Well Diffusion Method; Klebsiella pneumoniae 369; read-out: In Vitro MIC
# Experimental: In vitro antimicrobial activity was determined in BBL seed agar. Serial dilutions of the test compound were pipetted into agar wells (80 μL per well). […] For reference, see A. H. Litton, Antibiotics: Assessment of Antimicrobial Activity and Resistance, Academic Press, New York, pages 19-30 (1983).
Structures can show the parent of a compound that is named as a salt.
The following compounds are listed with their measured MIC values.
Answer format: numeric, µg/mL implied, no suffix.

Here are 5 compounds together with their reported answers.
compound="CC1(C)S[C@@H]2[C@H](N=CN3CCN(c4c(F)cc5c(=O)c(C(=O)O)cn(CCF)c5c4F)CC3)C(=O)N2[C@H]1C(=O)O [Compound D, monosodium salt]" unit_of_measure=µg/mL numeric_value=7.8
compound="CCn1cc(C(=O)O)c(=O)c2cc(F)c(N3CCN(C=N[C@@H]4C(=O)N5[C@@H]4SC(C)(C)[C@@H]5C(=O)O)CC3)cc21 [Compound B, monosodium salt]" unit_of_measure=µg/mL numeric_value=3.9
compound="CCn1cc(C(=O)O)c(=O)c2cc(F)c(N3CCN(C=N[C@@H]4C(=O)N5[C@@H]4SC(C)(C)[C@@H]5C(=O)O)CC3)nc21 [Compound H, disodium salt]" unit_of_measure=µg/mL numeric_value=7.8
compound="CCn1cc(C(=O)O)c(=O)c2cc(F)c(N3CCN(C=N[C@@H]4C(=O)N5C(C(=O)O)=C(C)CS[C@H]45)CC3)cc21 [Compound C, disodium salt]" unit_of_measure=µg/mL numeric_value=3.9
compound=CCn1cc(C(=O)OC)c(=O)c2cc(F)c(N3CCN(C=N[C@@H]4C(=O)N5[C@@H]4SC(C)(C)[C@@H]5C(=O)O)CC3)cc21 unit_of_measure=µg/mL numeric_value=125

Next:
Query: What MIC value was documented for this compound, CCn1cc(C(=O)O)c(=O)c2cc(F)c(N3CCCN(C=N[C@@H]4C(=O)N5[C@@H]4SC(C)(C)[C@@H]5C(=O)O)CC3)cc21 [Compound G, disodium salt] ?
Response: 100

Reference source: patent US5159077A
